From: paper PMC2756588

- MEASURED TARGET: T1, Hof1, Q05080
- T1 sequence (Q05080 590-669, looked up): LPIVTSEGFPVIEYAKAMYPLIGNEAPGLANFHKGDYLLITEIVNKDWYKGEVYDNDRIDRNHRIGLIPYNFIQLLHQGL
- ASSAY PROCEDURE: SPOT array
- MEASUREMENT SETUP: median of control spots 4086
REPORTED METRIC: SPOT intensity

Recorded results for 5 binders are shown here.
RSVKRPRRAPRPVVS 6
AVPPPPPPPPLPESL 1
NSMRPPLLIPAATTK 2
VKPRQLFPIPLNKVD 0
PSPSSSPPPIPKTAN 0

(I) RVRKTHVPASKRPSG
(II) PLQSKIPMLPSRRTM
-- ask Out of I and II , name the one with the higher SPOT intensity. Please identify the chosen entry by its label.
-- reply II
(II: 186, I: 0)
